Target: Zinc finger protein mex-5 (Caenorhabditis elegans) (UniProt Q9XUB2)
Sequence (Q9XUB2 whole entry, looked up): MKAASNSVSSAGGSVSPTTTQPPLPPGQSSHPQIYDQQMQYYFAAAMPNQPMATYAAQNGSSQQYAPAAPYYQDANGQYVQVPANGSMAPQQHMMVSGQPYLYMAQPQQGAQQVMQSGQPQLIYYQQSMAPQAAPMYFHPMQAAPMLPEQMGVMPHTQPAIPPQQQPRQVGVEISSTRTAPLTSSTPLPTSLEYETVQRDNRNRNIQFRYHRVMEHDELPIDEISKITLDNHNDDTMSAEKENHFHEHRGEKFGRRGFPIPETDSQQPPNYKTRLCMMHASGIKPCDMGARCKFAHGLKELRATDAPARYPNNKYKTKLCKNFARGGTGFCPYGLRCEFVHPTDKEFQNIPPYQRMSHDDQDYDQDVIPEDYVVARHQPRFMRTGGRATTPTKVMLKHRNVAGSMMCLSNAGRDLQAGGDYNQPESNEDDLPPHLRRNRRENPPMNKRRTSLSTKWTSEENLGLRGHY
Assay: MEX-5 RNA-binding inhibition confirmation – biochemical, C. elegans, fluorescence polarization, dose retest (AID 449745);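 note: potency is for blocking Mex-5 binding to labeled TCR2 RNA like unlabeled competitor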
Conditions: Mex-5 / TCR-2 RNA binding
Results filed as inconclusive are left out. Activity calls are given as the source filed them. The rule behind the calls is not given here.
Lab note: assign the record to one of active, inactive

structure.string | category.label
CC1CCN(Cc2c(O)ccc3c2O/C(=C\c2ccco2)C3=O)CC1 | active
COc1ccc2cc(N=Cc3nc(-c4ccc(C)cc4)oc3O)cnc2c1 | inactive
COc1ccc(C(=O)c2c(N)sc3c2CCN(C)C3)cc1 | inactive
Oc1ccc(Br)cc1C=Nc1cccn2cc(-c3ccccc3)nc12 | inactive
Oc1sc(C=Nc2ccc(F)cc2)c2ccccc12 | active

Q) So what was the verdict on CC(=O)Nc1ccc(S(=O)(=O)NCC(=O)NNC(=O)c2csc(N3CCOCC3)n2)cc1 in this test?
A) active

----------
Molecular target: Zinc finger protein mex-5 (Caenorhabditis elegans)
Test: MEX-5 RNA-binding inhibition confirmation – biochemical, C. elegans, fluorescence polarization, dose retest (AID 449745);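 note: potency is for blocking Mex-5 binding to labeled TCR2 RNA like unlabeled competitor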
Settings: Mex-5 / TCR-2 RNA binding
Records with an inconclusive call do not appear. Active and inactive are the calls of the source. The rule behind the calls is not given here.
// one of active, inactive, no free text

Illustrative cases are given below, each with its answer.
compound | study.system | category.label
CC/C(=N/Nc1cccc(C)c1)c1cnnc(SC)n1 | Zinc finger protein mex-5 (Caenorhabditis elegans) | inactive
COc1cc(N2CCCC2)c(OC)cc1/C=C(/C#N)c1cccc(Br)c1 | Zinc finger protein mex-5 (Caenorhabditis elegans) | active
COCC(C)N1CCC(Oc2cccc(C(=O)NCCc3ccccc3)c2)CC1 (stereo unspecified) | Zinc finger protein mex-5 (Caenorhabditis elegans) | inactive
O=C1NC(=O)N(c2ccccc2)C(=O)/C1=C/c1ccc([N+](=O)[O-])s1 | Zinc finger protein mex-5 (Caenorhabditis elegans) | active
CCOC(=O)C1CCN(c2nc(N)c3c(N)nc(SCC(=O)O)cc3c2C#N)CC1 | Zinc finger protein mex-5 (Caenorhabditis elegans) | active

Q) What classification did CCc1nnc(NS(=O)(=O)c2ccc(N=Cc3c(O)n(-c4ccc(Cl)cc4)c(=O)[nH]c3=O)cc2)s1 end up with in this test?
A) inactive

Q) Can you check N#CC1(C#N)C(c2ccccc2)OC23CCCCC2C1(C#N)C(=N)O3 (stereo unspecified) next?
A) inactive

Q) Another compound to look at: Cc1ccc(C(=O)N/C(=C\c2ccc(-c3ccc([N+](=O)[O-])cc3)o2)C(=O)NC2CCS(=O)(=O)C2)cc1 (stereo unspecified)
A) inactive

Q) Same thing, different compound: COc1ccc(/C=C2\SC(=O)NC2=S)cc1OC
A) active

Q) Can you check CN(C)c1ccc(/C=C/c2nc3ccccc3c(=O)[nH]2)cc1 next?
A) inactive

Q) Try this compound next: O=C(c1nc2ccc(Cl)cn2c1CN1CCC[C@H]1CO)N1CCCCCCC1
A) active

Q) Entry to check: Cc1cccc(N=Nc2c(O)[nH]c3ccc(F)cc23)c1
A) active

----------
Molecular target: Zinc finger protein mex-5 (Caenorhabditis elegans)
Experiment: MEX-5 RNA-binding inhibition confirmation – biochemical, C. elegans, fluorescence polarization, dose retest (AID 449745);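 note: potency is for blocking Mex-5 binding to labeled TCR2 RNA like unlabeled competitor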
Details: Mex-5 / TCR-2 RNA binding
Inconclusive results are not listed. The source made the active and inactive calls. The rule behind the calls is not given here.
AC50 for assorted compounds

compound | AC50
COc1cc(C=C2C(=O)c3ccccc3C2=O)cc(OC)c1OC | 28.4 µM
Cc1cccc(-n2c(O)c(C=Nc3ccc4c(c3)OCO4)c3ccccc3c2=O)n1 | 39 µM
Cc1ccccc1C(=O)N=c1ccn(-c2nc3ccccc3nc2NS(=O)(=O)c2ccccc2)cc1 | > 38 µM (inactive)
Cc1cc[n+](-c2[nH]c(=O)sc2/C=N/N=C(\[O-])c2ccncc2)cc1 | 29.4 µM
CCN(CC)c1ccc2cc(S(=O)(=O)c3ccc(C)cc3)c(=O)oc2c1 | 11.5 µM

Q) Param item = O=C(Cc1cccs1)Nc1nnc(SCc2ccc(Br)cc2)s1 ; retrieve measured AC50.
A) > 38 µM (inactive)

Q) Input O=C(Nc1ccccc1F)C(=Cc1sc(N2CCOCC2)nc1-c1ccccc1)C(=O)Nc1ccccc1F
A) 29.4 µM

Q) Try O=S(=O)(Nc1ccc(O)c(NS(=O)(=O)c2ccccc2)c1)c1ccccc1 next.
A) 6.92 µM

Q) Repeat with Cc1cc(C(=O)NNC(=O)CCCCC(=O)NNC(=O)c2cc(C)[nH]n2)n[nH]1
A) < 0.3 µM

Q) Query Cc1cccc(-n2c(O)c(/C=N/Nc3nc4c(c(=O)n(C)c(=O)n4C)n3C)c(=O)[nH]c2=S)c1 next
A) 7.45 µM

Q) O=C(N/N=C/c1sc(=O)[nH]c1-[n+]1ccccc1)c1ccccc1[O-] ?
A) 30.2 µM

Q) Next compound: CCC(C)[C@H](NC(=O)C1CC(=O)N(c2ccc3c(c2)OCO3)C1)C(=O)NC1CCCCC1 (stereo not given in full)
A) 35.8 µM

Q) And for CC1=C(C#N)C(=O)N(C2CCS(=O)(=O)C2)C(=O)/C1=C\c1ccco1 (stereo not given) ?
A) 3.22 µM

Values from PubChem BioAssay AID449745
